- Tested on: skin contact delayed-type hypersensitivity
- assay-notes: Skin contact delayed-type hypersensitivity (DNFB) response test, ear swelling, topical ointment
- Format: in vivo
- condition-notes: ointment 1.0 wt%, topical to ears; DNFB DTH, Balb/c mice; compared to blank ointment
- Method: Therapeutic Effect of Topical Administration of Compounds of the Present Application in Skin Contact Delayed-Type Hypersensitivity Response Test in Mice Delayed-type hypersensitivity (DTH) response in mouse skin is considered to be an effective model for clinical contact dermatitis and other T cell-mediated cutaneous immune diseases, such as atopic dermatitis and psoriasis. […] On Day 5, the thickness of the ears was measured using an engineering micrometer. […]
value-kind: Reduction Rate of Ear Swelling (%)
Give your result in % as a bare value.

The cases that follow already have their Reduction Rate of Ear Swelling on record.
{"compound": "CN(CCOC(=O)C1CCCCC1)C(=O)n1ccc2c(-c3cnn(C4(CC#N)CN(C5CCN(C(=O)c6ccnc(C(F)(F)F)c6F)CC5)C4)c3)ncnc21 [Compound A36]", "study-target": "skin contact delayed-type hypersensitivity", "Reduction Rate of Ear Swelling [%]": 29}
{"compound": "C=CC(=O)N1C[C@@H](Nc2ncnc3c2ccn3C(=O)N(C)CCOC(=O)C2CC2)CC[C@H]1C [Compound A33]", "study-target": "skin contact delayed-type hypersensitivity", "Reduction Rate of Ear Swelling [%]": 22}
{"compound": "C[C@@H]1CCN(C(=O)CC#N)C[C@@H]1N(C)c1ncnc2c1ccn2C(=O)N(C)CCOC(=O)C1CCCO1 (stereo partly drawn) [Compound A7]", "study-target": "skin contact delayed-type hypersensitivity", "Reduction Rate of Ear Swelling [%]": 27}
{"compound": "COCCOCC(=O)OCCN(C)C(=O)n1ccc2c(N(C)[C@H]3CN(C(=O)CC#N)CC[C@H]3C)ncnc21 [Compound A18]", "study-target": "skin contact delayed-type hypersensitivity", "Reduction Rate of Ear Swelling [%]": 29}
{"compound": "C[C@@H]1CCN(C(=O)CC#N)C[C@@H]1N(C)c1ncnc2c1ccn2C(=O)N(C)CCOC(=O)C1CCCCC1 [Compound A16]", "study-target": "skin contact delayed-type hypersensitivity", "Reduction Rate of Ear Swelling [%]": 35}

As a next step, examine the compound that follows.
Sample C[C@@H]1CN(C(=O)CC#N)[C@@]12CCN(c1ncnc3c1ccn3C(=O)N(C)CCOC(=O)c1ccn[nH]1)C2 [Compound A31] — what was its Reduction Rate of Ear Swelling?
16

* * *

- assay-notes: Plasma stability, human plasma
- Assay type: in vitro ADME, Humans
- condition-notes: 37° C., 60 min
value-kind: % Retained (%)
Give your result in % as a bare value.

The cases that follow already have their % Retained on record.
{"molecule": "C[C@@H]1CCN(C(=O)CC#N)C[C@@H]1N(C)c1ncnc2c1ccn2C(=O)N(C)CCOC(=O)C(C)(C)C [Compound A23]", "% Retained (%)": 18.5}
{"molecule": "COCCOCC(=O)OCCN(C)C(=O)n1ccc2c(N(C)[C@H]3CN(C(=O)CC#N)CC[C@H]3C)ncnc21 [Compound A18]", "% Retained (%)": 0.0}
{"molecule": "CCCCC(=O)OCCN(C)C(=O)n1ccc2c(N(C)[C@H]3CN(C(=O)CC#N)CC[C@H]3C)ncnc21 [Compound A22]", "% Retained (%)": 0.1}
{"molecule": "CC(C)C(=O)OCCN(C)C(=O)n1ccc2c(N(C)[C@H]3CN(C(=O)CC#N)CC[C@H]3C)ncnc21 [Compound A19]", "% Retained (%)": 0.0}
{"molecule": "CC(=O)OCCN(C)C(=O)n1ccc2c(N(C)[C@H]3CN(C(=O)CC#N)CC[C@H]3C)ncnc21 [Compound A13]", "% Retained (%)": 28.1}

Sample C[C@@H]1CCN(C(=O)CC#N)C[C@@H]1N(C)c1ncnc2c1ccn2C(=O)N(C)CCOC(=O)c1ccncc1 [Compound A15] — what was its % Retained?
0.0

Sample C[C@@H]1CCN(C(=O)CC#N)C[C@@H]1N(C)c1ncnc2c1ccn2C(=O)N(C)CCOC(=O)C1CCCCC1 [Compound A16] — what was its % Retained?
0.0

Sample C[C@@H]1CCN(C(=O)CC#N)C[C@@H]1N(C)c1ncnc2c1ccn2C(=O)N(C)CCOC(=O)C1CCN(C)CC1 [Compound A17] — what was its % Retained?
20.4
